# SYSTEM: Plasma kallikrein (Homo sapiens)
# Sequence (P03952 20-390 limits assumed): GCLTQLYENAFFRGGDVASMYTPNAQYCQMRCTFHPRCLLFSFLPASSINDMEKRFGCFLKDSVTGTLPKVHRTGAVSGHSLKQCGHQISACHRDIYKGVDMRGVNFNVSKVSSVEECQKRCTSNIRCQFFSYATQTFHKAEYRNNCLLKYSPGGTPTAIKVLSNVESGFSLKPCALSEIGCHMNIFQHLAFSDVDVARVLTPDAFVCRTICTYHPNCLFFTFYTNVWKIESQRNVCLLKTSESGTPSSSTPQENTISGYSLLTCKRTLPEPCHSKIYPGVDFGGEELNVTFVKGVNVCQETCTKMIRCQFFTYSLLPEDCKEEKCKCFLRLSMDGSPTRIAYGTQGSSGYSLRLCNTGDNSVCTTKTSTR
# Sequence (P03952 391-638 limits assumed): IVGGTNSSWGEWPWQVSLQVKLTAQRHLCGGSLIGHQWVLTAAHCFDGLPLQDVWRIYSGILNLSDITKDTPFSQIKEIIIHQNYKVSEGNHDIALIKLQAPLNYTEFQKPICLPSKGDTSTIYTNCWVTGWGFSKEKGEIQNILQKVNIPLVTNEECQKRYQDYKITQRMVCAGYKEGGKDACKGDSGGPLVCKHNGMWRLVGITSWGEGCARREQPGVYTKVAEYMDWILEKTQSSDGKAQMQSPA
# ASSAY COMMENT: Determination of the IC50 for Plasma Kallikrein: Plasma kallikrein inhibitory activity in vitro was determined using standard published methods (see e.g. Johansen et al., Int. J. Tiss. Reac. 1986, 8, 185; Shori et al., Biochem. Pharmacol., 1992, 43, 1209; Sturzebecher et al., Biol. Chem. Hoppe-Seyler, 1992, 373, 1025). Human plasma kallikrein (Protogen) was incubated at 25° C. with the fluorogenic substrate H-DPro-Phe-Arg-AFC and various concentrations of the test compound. Residual enzyme activity (initial rate of reaction) was determined by measuring the change in optical absorbance at 410 nm and the IC50 value for the test compound was determined.
pIC50: −log10 of the molar value.
ENDPOINT LABEL: pIC50

Study these solved cases before continuing.
MOLECULE	TEST RESULT
COCc1nn(Cc2cnc(N3CCCC3)nc2)cc1C(=O)NCc1c(-n2ccnn2)ccc(OC)c1F	> 8.00
COCc1nn(Cc2ccc3c(c2)CN(C(C)C)C3)cc1C(=O)NCc1c(-n2cc(C)nn2)ccc(OC)c1F	> 8.00

Please look at the following molecule next.
Tell me the measured pIC50 of `COCc1nn(Cc2cnc(N3CCCC3)nc2)cc1C(=O)NCc1c(-n2cc(C)nn2)ccc(OC)c1F` , please.
> 8.00

The measurements presented in this section are drawn from ChEMBL document CHEMBL5729649.
